Cited source for all entries: ChEMBL document CHEMBL5614376

# inhibition values compiled below
testSystem: 5-hydroxytryptamine receptor 2A (Homo sapiens)
method: Displacement of [3H]Ketanserin from recombinant human 5-HT2A receptor extracted from CHO cell membrane at 1 nM incubated for 60 mins by radioligand binding assay relative to control
Format: cell membranes
conditionSummary: filed as antagonist
outcomeMeasure: inhibition

- O=C(c1ccc(F)cc1)C1CCN(CCn2c(=O)[nH]c3ccccc3c2=O)CC1: 41.2%
- Fc1ccc2c(C3CCN(CCCn4nc5ccccc5n4)CC3)noc2c1: 79.7%
- Fc1ccc2c(C3CCN(CCCn4nnc5ccccc54)CC3)noc2c1: 76.9%
- Cl.c1ccc2c(c1)nnn2CCCCN1CCN(c2nsc3ccccc23)CC1: 43.7%

----------
method: Plasma protein binding in Cynomolgus monkey at 0.1 uM incubated for 30 mins
Format: ADME, cell-free, Macaca fascicularis
conditionSummary: read-out: PPB (converted)
outcomeMeasure: fraction unbound at 0.5 h, 0.1 µM

• Cl.c1ccc2c(c1)nnn2CCCCN1CCN(c2nsc3ccccc23)CC1 = 0.015

----------
method: Half life in Sprague-Dawley rat at 1 mg/kg, iv measured for 24 hrs by UPLC/MS/MS analysis
Type: ADME, organism-based
conditionSummary: in vivo
outcomeMeasure: half-life (h)

• Cl.c1ccc2c(c1)nnn2CCCCN1CCN(c2nsc3ccccc23)CC1 = 1.3

----------
method: Cmax in female Sprague-Dawley rat at 100 mg/kg, po qd treated for 13 weeks consecutively measured after recovery period on day 91 by UP/LC/MS/MS analysis
Type: ADME, organism-based
conditionSummary: in vivo, time 91 day
outcomeMeasure: Cmax (ng/mL)

- Cl.c1ccc2c(c1)nnn2CCCCN1CCN(c2nsc3ccccc23)CC1: 745

----------
method: Cmax in female Sprague-Dawley rat at 30 mg/kg, po qd treated for 13 weeks consecutively measured after recovery period on day 91 by UP/LC/MS/MS analysis
Assay type: ADME, organism-based
conditionSummary: in vivo, time 91 day
outcomeMeasure: Cmax (ng/mL)

• Cl.c1ccc2c(c1)nnn2CCCCN1CCN(c2nsc3ccccc23)CC1 = 333

----------
method: AUC (0 to t) in male Sprague-Dawley rat at 100 mg/kg, po qd treated for 13 weeks consecutively measured after recovery period on day 91 by UP/LC/MS/MS analysis
Format: ADME, organism-based
conditionSummary: in vivo, time 91 day
outcomeMeasure: AUC(0-t) at 2184 h (ng·h/mL)

* Cl.c1ccc2c(c1)nnn2CCCCN1CCN(c2nsc3ccccc23)CC1 | 4790

----------
method: Cmax in male Sprague-Dawley rat at 10 mg/kg, po measured on day 1 by UP/LC/MS/MS analysis
Format: ADME, organism-based
conditionSummary: in vivo, time 1 day
outcomeMeasure: Cmax (ng/mL)

- Cl.c1ccc2c(c1)nnn2CCCCN1CCN(c2nsc3ccccc23)CC1: 19.2

----------
# inhibition values compiled below
testSystem: UniProtKB P35348
Sequence (P35348 whole entry): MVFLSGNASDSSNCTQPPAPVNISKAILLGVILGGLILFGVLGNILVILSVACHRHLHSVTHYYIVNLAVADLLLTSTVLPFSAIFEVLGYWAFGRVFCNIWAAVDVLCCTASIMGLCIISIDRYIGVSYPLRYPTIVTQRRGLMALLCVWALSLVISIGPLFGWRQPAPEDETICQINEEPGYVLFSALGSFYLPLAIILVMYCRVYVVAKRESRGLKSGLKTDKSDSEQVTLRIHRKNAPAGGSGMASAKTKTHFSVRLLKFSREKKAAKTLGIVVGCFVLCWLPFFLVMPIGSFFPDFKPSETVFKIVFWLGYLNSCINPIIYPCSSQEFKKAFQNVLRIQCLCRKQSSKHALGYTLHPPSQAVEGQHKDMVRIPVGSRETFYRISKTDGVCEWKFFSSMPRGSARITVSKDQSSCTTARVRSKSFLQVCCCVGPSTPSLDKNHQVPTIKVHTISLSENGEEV
method: Displacement of [3H]prazosin from recombinant human alpha 1A adrenoceptor extracted from CHO cell membrane at 10 nM incubated for 60 mins by radioligand binding assay relative to control
Assay type: cell membranes
outcomeMeasure: inhibition (%)

* c1ccc(N2CCN(CCCCn3nnc4ccccc43)CC2)cc1 | 35
* Clc1cccc(N2CCN(CCCCn3cnc4ccccc43)CC2)c1Cl | 27
* Fc1cccc(N2CCN(CCCCn3cnc4ccccc43)CC2)c1 | 21.3
* COc1ccccc1N1CCN(CCCOc2cccc(C)c2C)CC1 | 7.19
* FC(F)(F)c1cccc(N2CCN(CCCCn3cnc4ccccc43)CC2)c1 | 36.4
* FC(F)(F)c1cccc(N2CCN(CCCCCCn3nnc4ccccc43)CC2)c1 | 4.15
* FC(F)(F)c1cccc(N2CCN(CCCCn3nc4ccccc4n3)CC2)c1 | -1.54
* FC(F)(F)c1cccc(N2CCN(CCCCCCn3nc4ccccc4n3)CC2)c1 | 7.06
* FC(F)(F)c1cccc(N2CCN(CCCCn3nnc4ccccc43)CC2)c1 | 38
* FC(F)(F)c1cccc(N2CCN(CCCCCn3nc4ccccc4n3)CC2)c1 | 14.8
* COc1ccccc1N1CCN(CCCCn2cnc3ccccc32)CC1 | 22.8
* FC(F)(F)c1cccc(N2CCN(CCCn3nc4ccccc4n3)CC2)c1 | -9.63
* FC(F)(F)c1cccc(N2CCN(CCCn3nnc4ccccc43)CC2)c1 | -2.01
* FC(F)(F)c1cccc(N2CCN(CCCCCn3nnc4ccccc43)CC2)c1 | 13
* Fc1ccc2ncn(CCCCN3CCN(c4cccc(C(F)(F)F)c4)CC3)c2c1 | 34.7

----------
testSystem: 5-hydroxytryptamine receptor 2A (Homo sapiens, UniProt P28223)
Sequence (P28223 whole entry): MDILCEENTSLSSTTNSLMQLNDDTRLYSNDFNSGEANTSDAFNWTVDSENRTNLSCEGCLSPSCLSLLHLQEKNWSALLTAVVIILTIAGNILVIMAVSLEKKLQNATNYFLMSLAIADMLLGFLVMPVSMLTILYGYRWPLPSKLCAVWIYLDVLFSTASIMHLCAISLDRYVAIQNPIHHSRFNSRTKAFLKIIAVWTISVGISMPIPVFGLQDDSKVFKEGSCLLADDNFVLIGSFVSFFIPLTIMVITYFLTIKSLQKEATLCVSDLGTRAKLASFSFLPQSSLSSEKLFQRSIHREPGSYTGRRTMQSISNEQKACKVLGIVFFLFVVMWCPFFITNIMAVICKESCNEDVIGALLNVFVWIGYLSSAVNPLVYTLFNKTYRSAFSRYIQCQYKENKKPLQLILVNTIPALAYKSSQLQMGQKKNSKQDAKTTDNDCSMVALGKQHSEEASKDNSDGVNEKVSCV
method: Displacement of [3H]Ketanserin from recombinant human 5-HT2A receptor extracted from CHO cell membrane at 100 nM incubated for 60 mins by radioligand binding assay relative to control
Format: cell membranes
outcomeMeasure: inhibition (%)

• COc1ccccc1N1CCN(CCCOc2cccc(C)c2C)CC1 = 37.7
• FC(F)(F)c1cccc(N2CCN(CCCCCn3nc4ccccc4n3)CC2)c1 = 14
• FC(F)(F)c1cccc(N2CCN(CCCCn3cnc4ccccc43)CC2)c1 = 37.7
• Cc1nc2ccccc2n1CCCCN1CCN(c2cccc(C(F)(F)F)c2)CC1 = -5.62
• FC(F)(F)c1cccc(N2CCN(CCCCn3nc4ccccc4n3)CC2)c1 = 38.1

----------
method: Cmax in Sprague-Dawley rat at 3 mg/kg, po measured for 24 hrs by UPLC/MS/MS analysis
Type: ADME, organism-based
conditionSummary: in vivo
outcomeMeasure: Cmax (ng/mL)

• Cl.c1ccc2c(c1)nnn2CCCCN1CCN(c2nsc3ccccc23)CC1 = 85.7

----------
method: Tmax in female Sprague-Dawley rat at 10 mg/kg, po measured on day 1 by UP/LC/MS/MS analysis
Type: ADME, organism-based
conditionSummary: in vivo, time 1 day
outcomeMeasure: Tmax (h)

* Cl.c1ccc2c(c1)nnn2CCCCN1CCN(c2nsc3ccccc23)CC1 | 1.3

----------
method: Cmax in Sprague-Dawley rat at 9 mg/kg, po measured for 24 hrs by UPLC/MS/MS analysis
Format: ADME, organism-based
conditionSummary: in vivo
outcomeMeasure: Cmax (ng/mL)

- Cl.c1ccc2c(c1)nnn2CCCCN1CCN(c2nsc3ccccc23)CC1: 186

----------
method: Cmax in female Sprague-Dawley rat at 10 mg/kg, po measured on day 1 by UP/LC/MS/MS analysis
Type: ADME, organism-based
conditionSummary: in vivo, time 1 day
outcomeMeasure: Cmax

- Cl.c1ccc2c(c1)nnn2CCCCN1CCN(c2nsc3ccccc23)CC1: 88.7 ng/mL

----------
method: AUC (0 to t) in female Sprague-Dawley rat at 100 mg/kg, po qd treated for 13 weeks consecutively measured after recovery period on day 91 by UP/LC/MS/MS analysis
Type: ADME, organism-based
conditionSummary: in vivo, time 91 day
outcomeMeasure: AUC(0-t) at 2184 h (ng·h/mL)

- Cl.c1ccc2c(c1)nnn2CCCCN1CCN(c2nsc3ccccc23)CC1: 7450

----------
method: Cmax in male Sprague-Dawley rat at 100 mg/kg, po measured on day 1 by UP/LC/MS/MS analysis
Assay type: ADME, organism-based
conditionSummary: in vivo, time 1 day
outcomeMeasure: Cmax (ng/mL)

- Cl.c1ccc2c(c1)nnn2CCCCN1CCN(c2nsc3ccccc23)CC1: 347

----------
method: AUC (0 to t) in Sprague-Dawley rat at 9 mg/kg, po measured for 24 hrs by UPLC/MS/MS analysis
Assay type: ADME, organism-based
conditionSummary: in vivo
outcomeMeasure: AUC(0-t) at 24 h (ng·h/mL)

• Cl.c1ccc2c(c1)nnn2CCCCN1CCN(c2nsc3ccccc23)CC1 = 605

----------
method: Metabolic stability in rat liver microsomes assessed as compound remaining at 10 umol/L incubated upto 120 mins in presence of NADPH by LC-MS/MS analysis
Assay type: ADME, Microsome
conditionSummary: dose 10 µmol/L, read-out: Stability
outcomeMeasure: remaining at 2 h, 10 µM (%)

* Cl.c1ccc2c(c1)nnn2CCCCN1CCN(c2nsc3ccccc23)CC1 | 21.1

----------
method: Cmax in female Sprague-Dawley rat at 10 mg/kg, po qd treated for 13 weeks consecutively measured after recovery period on day 91 by UP/LC/MS/MS analysis
Assay type: ADME, organism-based
conditionSummary: in vivo, time 91 day
outcomeMeasure: Cmax

* Cl.c1ccc2c(c1)nnn2CCCCN1CCN(c2nsc3ccccc23)CC1 | 140 ng/mL

----------
method: Cmax in male Sprague-Dawley rat at 10 mg/kg, po qd treated for 13 weeks consecutively measured after recovery period on day 91 by UP/LC/MS/MS analysis
Assay type: ADME, organism-based
conditionSummary: in vivo, time 91 day
outcomeMeasure: Cmax (ng/mL)

- Cl.c1ccc2c(c1)nnn2CCCCN1CCN(c2nsc3ccccc23)CC1: 36.2

----------
method: Cmax in Sprague-Dawley rat at 1 mg/kg, po measured for 24 hrs by UPLC/MS/MS analysis
Assay type: ADME, organism-based
conditionSummary: in vivo
outcomeMeasure: Cmax (ng/mL)

* Cl.c1ccc2c(c1)nnn2CCCCN1CCN(c2nsc3ccccc23)CC1 | 33.3

----------
testSystem: 5-hydroxytryptamine receptor 2A (Homo sapiens)
method: Displacement of [3H]Ketanserin from recombinant human 5-HT2A receptor extracted from CHO cell membrane at 10 nM incubated for 60 mins by radioligand binding assay relative to control
Type: cell membranes
outcomeMeasure: inhibition (%)

• FC(F)(F)c1cccc(N2CCN(CCCn3nnc4ccccc43)CC2)c1 = -6.65
• c1ccc2nn(CCCCN3CCN(c4noc5ccccc45)CC3)nc2c1 = 5.31
• FC(F)(F)c1cccc(N2CCN(CCCCCCn3nnc4ccccc43)CC2)c1 = 11.3
• FC(F)(F)c1cccc(N2CCN(CCCCCn3nnc4ccccc43)CC2)c1 = 7.37
• Clc1cccc(N2CCN(CCCCn3cnc4ccccc43)CC2)c1 = -1.87
• Fc1cccc(N2CCN(CCCCn3nnc4ccccc43)CC2)c1 = -2.88
• COc1ccccc1N1CCN(CCCCn2cnc3ccccc32)CC1 = -4.99
• Clc1cccc(N2CCN(CCCCn3nnc4ccccc43)CC2)c1 = 17.2
• Clc1cccc(N2CCN(CCCCn3cnc4ccccc43)CC2)c1Cl = -5.13
• FC(F)(F)c1cccc(N2CCN(CCCCn3nnc4ccccc43)CC2)c1 = 0
• c1ccc2c(c1)nnn2CCCCN1CCN(c2noc3ccccc23)CC1 = 38.3
